- target or system: T1, Cynomolgus monkey glycophorin A on Cynomolgus monkey red blood cells (Cynomolgus monkey)
- T1 construct: whole, on cells; also called Cyno RBC; Cyno GPA
- protocol details: FACS, RBC Cy01
quantity kind: fluorescence intensity
Reply briefly: the number, and no unit.

binder: Hu6C12-19 (antibody, V domains shown, IgG format; VH.1b + Vk.1b) VH: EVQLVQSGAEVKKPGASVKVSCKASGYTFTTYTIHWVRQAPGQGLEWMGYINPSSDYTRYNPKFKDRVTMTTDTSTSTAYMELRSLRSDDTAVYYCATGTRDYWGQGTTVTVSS VL: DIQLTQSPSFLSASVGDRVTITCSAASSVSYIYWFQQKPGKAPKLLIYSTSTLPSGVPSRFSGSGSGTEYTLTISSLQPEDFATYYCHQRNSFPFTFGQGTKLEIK
fluorescence intensity: 1040

Q: What fluorescence intensity value was documented for this binder, Hu6C12-12 (antibody, V domains shown, IgG format; VH.1c + Vk.1a) VH: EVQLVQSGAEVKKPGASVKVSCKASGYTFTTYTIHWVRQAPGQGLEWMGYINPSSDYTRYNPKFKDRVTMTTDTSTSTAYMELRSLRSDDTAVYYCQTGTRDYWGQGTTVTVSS VL: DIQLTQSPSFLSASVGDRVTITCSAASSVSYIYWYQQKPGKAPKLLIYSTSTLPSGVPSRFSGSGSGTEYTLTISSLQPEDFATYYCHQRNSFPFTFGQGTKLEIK ?
Ans: 959

Q: Name the reported fluorescence intensity value associated with the binder Hu6C12-4 (antibody, V domains shown, IgG format; VH.1d + Vk.1) VH: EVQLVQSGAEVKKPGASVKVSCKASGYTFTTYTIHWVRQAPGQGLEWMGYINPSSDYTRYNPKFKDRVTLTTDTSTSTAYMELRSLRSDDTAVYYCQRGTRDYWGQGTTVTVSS VL: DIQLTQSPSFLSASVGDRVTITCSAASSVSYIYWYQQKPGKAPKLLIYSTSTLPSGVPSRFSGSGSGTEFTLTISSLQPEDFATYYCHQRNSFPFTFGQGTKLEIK
Ans: 884
